assay: Toxicity in ig dosed Sprague-Dawley rat; format: organism-based; conditions: in vivo, po

Mol: Clc1ccc(-c2noc(CCCCN3CCCCC3)n2)c(Cl)c1
LD50: 957 mg/kg

----------
assay: Therapeutic index, ratio of LD50 for toxicity in ip dosed rodent to ED50 for analgesic activity in ip dosed rodent; type: organism-based; settings: rodentia, in vivo, read-out: Ratio LD50/ED50

Mol: Cc1cc(OCCN2CCOCC2)nn1-c1ccc2ccccc2c1
selectivity ratio: 12

----------
test: Therapeutic index, ratio of LD50 for toxicity in ig dosed Sprague-Dawley rat to ED50 for analgesic activity in ig dosed Sprague-Dawley rat; type: organism-based; settings: in vivo, po, read-out: Ratio LD50/ED50

Mol: Clc1ccc(-c2noc(CCCCN3CCCCC3)n2)c(Cl)c1
selectivity ratio: 18.2

----------
target: Sigma non-opioid intracellular receptor 1 (Homo sapiens, UniProt Q99720); assay: Displacement of [3H](+)-pentazocine from human sigma 1 receptor expressed in HEK293 cells membrane incubated for 120 mins by MicroBeta scintillation counter assay
Sequence (Q99720 whole entry): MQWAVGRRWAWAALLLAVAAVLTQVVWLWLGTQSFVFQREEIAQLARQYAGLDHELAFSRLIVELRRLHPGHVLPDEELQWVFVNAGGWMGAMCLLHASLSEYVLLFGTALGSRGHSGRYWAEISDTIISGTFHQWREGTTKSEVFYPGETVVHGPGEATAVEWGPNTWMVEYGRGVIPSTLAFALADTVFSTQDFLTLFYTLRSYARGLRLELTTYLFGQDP
pKi: −log10 of the molar value.
The compounds listed here are annotated with their pKi.
Reported metric: pKi

Compound: CC(C)S(=O)(=O)Nc1cccc(N2CCN(Cc3cn(-c4ccccc4F)nn3)CC2)c1
Reported metric: pKi
Result: > 7.00
//
Compound: O=C(c1ccccc1)C1(N2CCN(Cc3ccccc3)CC2)CCOC2(CCCC2)C1 (stereo unspecified)
Reported metric: pKi
Result: > 7.00
//
Compound: CN(CCOC(c1cccs1)c1ccnn1C)CCc1ccccc1 (stereo unspecified)
Reported metric: pKi
Result: > 7.00
//
Compound: O=C(c1ccccn1)C1(N2CCN(Cc3ccccc3)CC2)CCOC2(CCCC2)C1 (stereo unspecified)
Reported metric: pKi
Result: > 7.00
//
Compound: CN1CCc2ccccc2C12CCN(CCc1ccccc1)CC2
Reported metric: pKi
Result: > 7.00
//
Compound: CCN1CC2(CCN(CCc3ccccc3)CC2)c2ccccc2C1=O
Reported metric: pKi
Result: 7.00
//
Compound: CC(C)S(=O)(=O)Nc1cccc(C2CCN(Cc3cn(-c4ccccc4)nn3)CC2)c1
Reported metric: pKi
Result: > 7.00
//
Compound: CN1CC2(CCN(CCc3ccccc3)CC2)c2ccccc2C1=O
Reported metric: pKi
Result: 7.00
//
Compound: O=C(c1cccc(C(F)(F)F)n1)C1(N2CCN(Cc3ccccc3)CC2)CCOC2(CCCC2)C1 (stereo unspecified)
Reported metric: pKi
Result: > 7.00
//
Compound: CN(CCOC(c1cccs1)c1ccnn1C)Cc1ccccc1 (stereo unspecified)
Reported metric: pKi
Result: > 7.00
//
Compound: Oc1cccc(C2CCN(Cc3cn(-c4ccccc4)nn3)CC2)c1
Reported metric: pKi
Result: > 7.00
//
Compound: CCC(=O)N(CCN1CCC(N(C)Cc2ccccc2)C1)c1ccccc1 (stereo unspecified)
Reported metric: pKi
Result: 7.00
//
Compound: CC(=O)Oc1cccc(C2CCN(Cc3cn(-c4ccccc4)nn3)CC2)c1
Reported metric: pKi
Result: > 7.00
//
Compound: CCOCCN1CCCCC(CC)(c2cccc(O)c2)C1 (stereo unspecified)
Reported metric: pKi
Result: > 7.00
//
Compound: COc1ccc2c(c1)CCN(C)C21CCN(CCc2ccccc2)CC1
Reported metric: pKi
Result: > 7.00
//
Compound: CC(C)S(=O)(=O)Nc1cccc(N2CCN(Cc3cn(-c4ccccc4)nn3)CC2)c1
Reported metric: pKi
Result: > 7.00
